tested on: SYO-1 tumor spheroids, viability % test/control; test: Anticancer human tumor SYO-1 cell line growth inhibition; details: curve of first compound; second compound 0.00949 µM; spheroids with HUVEC and MSC;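 note: spheroids exposed to agents for 7 days before viability read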
pIC50: −log10 of the molar value.
// reported pIC50 per item

>  <compound>
Cc1cc(C)c(CNC(=O)c2cc(-c3ccc(CN4CCOCC4)cc3)cc3c2cnn3C2CCCC2)c(=O)[nH]1 + CC[C@@]1(O)C(=O)OCc2c1cc1n(c2=O)Cc2cc3c(CN(C)C)c(O)ccc3nc2-1

>  <pIC50>
> 7.50

$$$$
>  <compound>
[2H]c1nc(C)nc([2H])c1-c1cc(NC[C@@H](C)c2cccc3c(C(=O)NC)ccnc23)ncn1 + CC[C@@]1(O)C(=O)OCc2c1cc1n(c2=O)Cc2cc3c(CN(C)C)c(O)ccc3nc2-1

>  <pIC50>
> 7.50

$$$$
>  <compound>
O=C(c1cc(Cc2n[nH]c(=O)c3ccccc23)ccc1F)N1CCN(C(=O)C2CC2)CC1 + CC[C@@]1(O)C(=O)OCc2c1cc1n(c2=O)Cc2cc3c(CN(C)C)c(O)ccc3nc2-1

>  <pIC50>
> 7.02

$$$$
>  <compound>
CC(C)n1c(=O)n(C)c2cnc3cc(F)c(-c4ccc(OCCCN5CCCCC5)nc4)cc3c21 + CC[C@@]1(O)C(=O)OCc2c1cc1n(c2=O)Cc2cc3c(CN(C)C)c(O)ccc3nc2-1

>  <pIC50>
> 7.50

$$$$
>  <compound>
CC1COCCN1c1cc(-c2ccnn2C)c2ccnc(-c3ccn[nH]3)c2n1 (configuration not stated) + CC[C@@]1(O)C(=O)OCc2c1cc1n(c2=O)Cc2cc3c(CN(C)C)c(O)ccc3nc2-1

>  <pIC50>
> 7.50

$$$$
>  <compound>
COc1cc(C)[nH]c(=O)c1CN1CCc2c(Cl)cc(C(OC)C3COC3)c(Cl)c2C1=O (configuration not stated) + CC[C@@]1(O)C(=O)OCc2c1cc1n(c2=O)Cc2cc3c(CN(C)C)c(O)ccc3nc2-1

>  <pIC50>
> 7.50

$$$$
>  <compound>
CNCc1ccc(-c2cc(-c3nc(-c4ccc(S(=O)(=O)C(C)C)cc4)cnc3N)on2)cc1 + CC[C@@]1(O)C(=O)OCc2c1cc1n(c2=O)Cc2cc3c(CN(C)C)c(O)ccc3nc2-1

>  <pIC50>
> 8.02

$$$$
